experimental-target: EGFR-pY1110
assay-details: fluorescence polarization
attribute-measured: Kd (µM)
Just the number please, in µM, no unit attached.

Solved entries (count: 5):
binder="S10V K15L (designed binder) MKIEEHHHHHHSSGRENLYFQGGAAQPAAPVDSIQAEEWYFGKLGRKDAERQLLSFGNPRGTFLIRESETTKGAYVLSIRDWDDMKGDHVKHYLIRKLDNGGYYITTRAQFETLQQLVQHYSERAAGLSSRLVVPSHKGAAA" attribute_measured=Kd value_observed=4.4
binder="S10V (designed binder) MKIEEHHHHHHSSGRENLYFQGGAAQPAAPVDSIQAEEWYFGKLGRKDAERQLLSFGNPRGTFLIRESETTKGAYVLSIRDWDDMKGDHVKHYKIRKLDNGGYYITTRAQFETLQQLVQHYSERAAGLSSRLVVPSHKGAAA" attribute_measured=Kd value_observed=34
binder="K2E T8V S10A K15I (designed binder) MKIEEHHHHHHSSGRENLYFQGGAAQPAAPVDSIQAEEWYFGKLGREDAERQLLSFGNPRGTFLIRESETVKGAYALSIRDWDDMKGDHVKHYIIRKLDNGGYYITTRAQFETLQQLVQHYSERAAGLSSRLVVPSHKGAAA" attribute_measured=Kd value_observed=3.8
binder="T8V K15L (designed binder) MKIEEHHHHHHSSGRENLYFQGGAAQPAAPVDSIQAEEWYFGKLGRKDAERQLLSFGNPRGTFLIRESETVKGAYSLSIRDWDDMKGDHVKHYLIRKLDNGGYYITTRAQFETLQQLVQHYSERAAGLSSRLVVPSHKGAAA" attribute_measured=Kd value_observed=1.7
binder="K15L (designed binder) MKIEEHHHHHHSSGRENLYFQGGAAQPAAPVDSIQAEEWYFGKLGRKDAERQLLSFGNPRGTFLIRESETTKGAYSLSIRDWDDMKGDHVKHYLIRKLDNGGYYITTRAQFETLQQLVQHYSERAAGLSSRLVVPSHKGAAA" attribute_measured=Kd value_observed=5.8

# Kd of S10A (designed binder) MKIEEHHHHHHSSGRENLYFQGGAAQPAAPVDSIQAEEWYFGKLGRKDAERQLLSFGNPRGTFLIRESETTKGAYALSIRDWDDMKGDHVKHYKIRKLDNGGYYITTRAQFETLQQLVQHYSERAAGLSSRLVVPSHKGAAA = 13
